Target: pre-existing anti-drug antibodies (ADA) present in human sera
Assay: pre-existing ADA ELISA, scFv coated, human sera unspiked vs spiked
// reported Mean No of serum samples >30% inhibition (30% CCP) with SCP (serum samples) per item
Just the number, please.

Worked examples follow.
Binder | Result value
PRO2993 (scFv 54-21-H03-sc01_(P15A)) (scFv, PRO1922 variant; VH substitution, AHo numbering; also called PRO1922 P15A) scFv: DIQMTQSPSSLSASVGDRVTITCQASESIYSSLAWYQQKPGKAPKLLIYLASTLASGVPSRFSGSGSGTDFTLTISSLQPEDFATYYCQSTDYTTSTHRNSFGTGTKVTVLGGGGGSGGGGSGGGGSGGGGSEVQLVESGGGLVQAGGSLRLSCAASGFSFSTTYYMCWVRQAPGKGLEWIGCTNTASSVRTYYATWAKGRFTISRDNSKNTVYLQMNSLRAEDTAVYYCARDMGFADYALNLWGQGTLVTVSS | 2
PRO2914 (scFv 37-20-B03-sc09.1_(T101S, L144A, T146Q)) (scFv, PRO2230 variant; VH substitutions, AHo numbering; also called PRO2230 T101S-L144A-T146Q) scFv: DIQMTQSPASLSASVGDRVTITCQASQSIGTYLAWYQQKPGKPPKLLIYRAFILASGVPSRFSGSGSGTDFTLTISSLQPEDFATYYCQSNFYSDSTTIGPNAFGTGTKVTVLGGGGGSGGGGSGGGGSGGGGSEVQLVESGGGLVQPGGSLRLSCAASGFSFNSDYWIYWVRQAPGKGLEWIASIYGGSSGNTQYASWAQGRFTISRDNSKNTVYLQMNSLRAEDSAVYFCARGYVDYGGATDLWGQGTAVQVSS | 5

Now for another entry.
// recorded Mean No of serum samples >30% inhibition (30% CCP) with SCP (serum samples) for PRO2947 (scFv 37-20-B03-sc09.1_(T146K)) (scFv, PRO2230 variant; VH substitution, AHo numbering; also called PRO2230 T146K) scFv: DIQMTQSPASLSASVGDRVTITCQASQSIGTYLAWYQQKPGKPPKLLIYRAFILASGVPSRFSGSGSGTDFTLTISSLQPEDFATYYCQSNFYSDSTTIGPNAFGTGTKVTVLGGGGGSGGGGSGGGGSGGGGSEVQLVESGGGLVQPGGSLRLSCAASGFSFNSDYWIYWVRQAPGKGLEWIASIYGGSSGNTQYASWAQGRFTISRDNSKNTVYLQMNSLRAEDTAVYFCARGYVDYGGATDLWGQGTLVKVSS : 1
